Entry source: patent US6642266B2

target: EP1 receptor (Homo sapiens, UniProt P34995)
Sequence (P34995 whole entry): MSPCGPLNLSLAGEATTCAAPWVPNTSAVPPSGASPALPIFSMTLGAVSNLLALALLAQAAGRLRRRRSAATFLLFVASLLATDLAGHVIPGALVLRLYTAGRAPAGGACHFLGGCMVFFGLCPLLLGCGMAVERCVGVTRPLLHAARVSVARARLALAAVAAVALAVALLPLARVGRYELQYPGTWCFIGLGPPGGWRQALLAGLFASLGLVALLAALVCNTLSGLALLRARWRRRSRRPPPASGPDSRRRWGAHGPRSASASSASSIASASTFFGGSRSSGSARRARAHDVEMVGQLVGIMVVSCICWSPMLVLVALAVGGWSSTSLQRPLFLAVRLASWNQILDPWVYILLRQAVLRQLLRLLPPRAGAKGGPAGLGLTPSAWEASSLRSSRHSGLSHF
experimental endpoint: IC50

[Q] Data request, read-out IC50, for O=C(O)CCCCCCN1C(=O)CCC1CCC(O)Cc1ccccc1 (stereo not shown)
[A] > 3.2 µM
